# inhibition values compiled below
System: HCT-116
ASSAY INFO: Inhibition of tyrosine kinase in human HCT116 cells at IC50 after 24 hrs by ELISA relative to control
Type: cell-based

Completed entries (count: 4):
# COMPOUND, TARGET OF ASSAY, REPORTED
records = [
    ("CCOC(=O)c1nn(-c2ccccc2)c2nc3cc4nc5ccccc5nc4cc3n12", "HCT-116", "4%"),
    ("Nc1cc2nc3ccccc3nc2cc1N", "HCT-116", "72%"),
    ("O=c1oc(=O)c2[nH]c3cc4nc5ccccc5nc4cc3[nH]c1=2", "HCT-116", "0.4%"),
    ("CCOC(=O)c1nn(-c2ccc(Cl)cc2)c2nc3cc4nc5ccccc5nc4cc3n12", "HCT-116", "37%"),
]

Given the compound Nc1cc2nc3ccccc3nc2cc1/N=N/C1C(=O)ON=C1c1ccccc1 (stereo not given) , what is its reported inhibition?
68%

What about this compound? Clc1cccc(-c2nc3cc4nc5ccccc5nc4cc3[nH]2)c1
17%

* * *

# inhibition values compiled below
Test system: HCT-116
ASSAY INFO: Inhibition of tyrosine kinase in human HCT116 cells at IC50 after 24 hrs by ELISA relative to control
Type: cell-based
The answer is to be given in %; state only the numeric part.

Given the compound CCOC(=O)c1nn(-c2ccc(C)cc2)c2nc3cc4nc5ccccc5nc4cc3n12 , what is its reported inhibition?
18

What about this compound? Clc1ccc(-c2nc3cc4nc5ccccc5nc4cc3[nH]2)c(Cl)c1
12

What about this compound? CC1=NN(c2ccccc2)C(=O)C1/N=N/c1cc2nc3ccccc3nc2cc1N (centres undefined)
2

What about this compound? S=c1[nH]c2cc3nc4ccccc4nc3cc2[nH]1
85

What about this compound? O=C(Nc1cc2nc3ccccc3nc2cc1NC(=O)c1ccccc1)c1ccccc1
0.5

What about this compound? CC1(C)CC(=O)C(/N=N/c2cc3nc4ccccc4nc3cc2N)C(=O)C1
0.6

What about this compound? CCCc1nc2cc3nc4ccccc4nc3cc2[nH]1
64

What about this compound? c1ccc2nc3cc4[nH]cnc4cc3nc2c1
3

What about this compound? CSc1nc2cc3nc4ccccc4nc3cc2[nH]1
84
